# measured_target: HLA-B*58:01
# test_description: IEDB peptide-MHC binding, purified MHC/direct/fluorescence; filed as Kd, often an IC50 or EC50 that approximates it; bounds were set here for any values at or beyond the usual limits of such assays
# conditions: source organism: Collimonas fungivorans
pKd: −log10 of the molar value.
value_kind: pKd

The sequence listed as AYSPFAFKK has a reported pKd of ≤ 4.70

* * *

# measured_target: HLA-A*01:01
# test_description: IEDB peptide-MHC binding, purified MHC/competitive/radioactivity; filed as Kd, often an IC50 or EC50 that approximates it; bounds were set here for any values at or beyond the usual limits of such assays
# conditions: source organism: SARS coronavirus Tor2
# if measured Kd < 0.6 µM: 1  # else: -1

Reference set, count: 5
HFAIGLALY :: -1
SWFITQRNFF :: -1
GYTMHANYI :: -1
YFTNDVSFL :: -1
VFYLYLTFYF :: 1

In the record for ADAGFMKQY , is Kd less than 0.6 µM? -1

Item PYRVVVLSF : Kd beneath 0.6 µM, strictly? -1

Say whether its Kd is strictly beneath 0.6 µM. Entry: GYVTHGFNL -1

# TODO verify Kd < 0.6 µM strictly for this sequence: LFADINGKL -1

Given the entry GTDLEGKFY , would its reported Kd be below 0.6 µM? 1

Is 0.6 µM strictly greater than the sequence's reported Kd? sequence: LVAEMDGIQY 1

* * *

# measured_target: HLA-A*02:11
# test_description: IEDB peptide-MHC binding, purified MHC/direct/fluorescence; filed as Kd, often an IC50 or EC50 that approximates it; bounds were set here for any values at or beyond the usual limits of such assays
# conditions: source organism: Orthohantavirus andesense
pKd: −log10 of the molar value.
value_kind: pKd

Observed pKd on HLA-A*02:11, entry EVLKAMSLY , equals ≤ 4.70

* * *

# measured_target: HLA-A*02:12
# test_description: IEDB peptide-MHC binding, purified MHC/direct/fluorescence; filed as Kd, often an IC50 or EC50 that approximates it; bounds were set here for any values at or beyond the usual limits of such assays
# conditions: source organism: Orthohantavirus andesense
pKd: −log10 of the molar value.
value_kind: pKd

pKd reading for EVLKAMSLY : ≤ 4.70

* * *

# measured_target: HLA-B*44:03
# test_description: IEDB peptide-MHC binding, purified MHC/competitive/radioactivity; filed as Kd, often an IC50 or EC50 that approximates it; bounds were set here for any values at or beyond the usual limits of such assays
# conditions: source organism: Dengue virus 4 Philippines/H241/1956
value_kind: Kd (nM)
Answers are plain numbers, in nM.

Form field Kd, entry EEHKETWHY : 16.9

* * *

# measured_target: HLA-A*30:01
# test_description: IEDB peptide-MHC binding, purified MHC/competitive/radioactivity; filed as Kd, often an IC50 or EC50 that approximates it; bounds were set here for any values at or beyond the usual limits of such assays
# conditions: source organism: Mammarenavirus lassaense
value_kind: Kd

Entry under test: ASPILRFLY . Its Kd was ≥ 78.1 µM

* * *

# measured_target: HLA-C*15:02
# test_description: IEDB peptide-MHC binding, purified MHC/direct/fluorescence; filed as Kd, often an IC50 or EC50 that approximates it; bounds were set here for any values at or beyond the usual limits of such assays
# conditions: source organism: Bacillus cereus G9241
value_kind: Kd (nM)
Answers are plain numbers, in nM.

Kd value, target or system HLA-C*15:02, for ITNPFFYQM : 56
